target.or.test.system: γ-secretase (N100FLAG Notch-based substrate) (Homo sapiens)
Construct: made in house; host or cells: S-1 CHO cell line (Chinese hamster ovary)
assay.text: In vitro γ-secretase assay, N-100 Flag (Notch-based substrate) cleavage
Type: biochemical
test.context: effect on N-100 Flag cleavage; compounds tested in vitro at 100 μM
measurement.kind: γ-Secretase Assay N-100 Flag

Consider the reported γ-Secretase Assay N-100 Flag for these compounds:
CN(CCC(O)c1ccc2ccccc2c1)Cc1ccccc1 (centres unmarked) ... Enh
OC(CCNc1ccc(F)c(Cl)c1)c1ccc2ccccc2c1 (centres unmarked) ... Inh
CC(C)N(CCC(O)c1ccc2ccccc2c1)Cc1cc(F)cc(F)c1 (centres unmarked) ... Inh
OC(CCN1CCN(c2ccc(F)cc2)CC1)c1ccc2ccccc2c1 (centres unmarked) ... Enh

Record γ-Secretase Assay N-100 Flag per entry; entries follow.
1. CC(C)N(CCC(O)c1ccc2ccccc2c1)Cc1ccc(F)c(F)c1 (centres unmarked)
2. CC(C)N(Cc1ccccc1)CC(O)c1ccc2ccccc2c1 (centres unmarked)
3. CCOc1ccc(NCCC(O)c2ccc3ccccc3c2)cc1 (centres unmarked)
4. OC(CCN1CCN(c2cccc(C(F)(F)F)c2)CC1)c1ccc2ccccc2c1 (centres unmarked)
5. CC(C)N(CC[C@@H](O)c1ccc2ccccc2c1)Cc1ccccc1
6. O=[N+]([O-])c1cc(NCCC(O)c2ccc3ccccc3c2)ccc1Cl (centres unmarked)
7. Cc1ccc(C(O)CCN(Cc2ccccc2)C(C)C)cc1F (centres unmarked)
8. Cc1cccc(C)c1C(O)CCN(Cc1ccccc1)C(C)C (centres unmarked)

[out]
Enh
Inh
Inh
Enh
Inh
Inh
Inh
Inh

According to the records, this compound CC(C)N(CCC(O)c1cccc2ccccc12)Cc1ccccc1 (centres unmarked) displays γ-Secretase Assay N-100 Flag of Enh.

====

target.or.test.system: γ-secretase (C100FLAG APP-based substrate) (Homo sapiens)
Construct: made in house; host or cells: S-1 CHO cell line (Chinese hamster ovary)
assay.text: In vitro γ-secretase assay, C-100 Flag (APP-based substrate) cleavage
Assay type: biochemical
test.context: effect on C-100 Flag cleavage; compounds tested in vitro at 100 μM
measurement.kind: γ-Secretase Assay C-100 Flag

Consider the reported γ-Secretase Assay C-100 Flag for these compounds:
Cc1ccc(NCCC(O)c2ccc3ccccc3c2)cc1F (stereo not shown) [Example 78] ... Enh
CC(C)N(CCC(O)c1ccc2ccccc2c1)c1ccccc1 (stereo not shown) [Example 20] ... Inh
CC(CN(Cc1ccccc1)C(C)C)C(O)c1ccc2ccccc2c1 (stereo not shown) [Example 88] ... Inh
COc1ccc(NCCC(O)c2ccc(Cl)cc2)cc1 (stereo not shown) [Example 80] ... Enh

According to the records, this compound COC(CCN(Cc1ccccc1)C(C)C)c1ccc2ccccc2c1 (stereo not shown) [Example 84] displays γ-Secretase Assay C-100 Flag of Inh

====

target.or.test.system: γ-secretase (Aβ1-40 production) (Homo sapiens)
Construct: made in house; host or cells: S-1 CHO cell line (Chinese hamster ovary)
assay.text: γ-Secretase assay, Aβ1-40 ELISA
Assay type: biochemical
test.context: 100 μM
measurement.kind: inhibition at 100 µM (%)
Give bare numbers, in %.

CC(C)N(CCC(O)c1ccc(C#N)cc1)Cc1ccccc1 (stereo not shown) [Example 64] ... 6
CC(C)N(Cc1ccccc1)CC(O)c1ccc2ccccc2c1 (stereo not shown) [Example 82] ... 0
COC(CCN(Cc1ccccc1)C(C)C)c1ccc2ccccc2c1 (stereo not shown) [Example 84] ... 51
COc1cccc2cc(C(O)CCN(Cc3ccccc3)C(C)C)oc12 (stereo not shown) [Example 70] ... 0

Record inhibition at 100 µM per entry; entries follow.
1. COc1ccc(C(O)CCN(Cc2ccccc2)C(C)C)cc1OC (stereo not shown) [Example 59]
2. CC(C)N(CCC(O)c1ccc(C(=O)O)cc1)Cc1ccccc1 (stereo not shown) [Example 67]
3. CC(C)N(CCC(O)c1ccccc1)Cc1ccccc1 (stereo not shown) [Example 4]
4. OC(CCN1CCN(Cc2ccccc2)CC1)c1ccc2ccccc2c1 (stereo not shown) [Example 47]
5. OC(CCNc1ccccc1)c1ccc2ccccc2c1 (stereo not shown) [Example 10]

[out]
[0, 27, 10, 0, 0]

====

For each record, write down the corresponding inhibition at 100 µM.
target.or.test.system: γ-secretase (Aβ1-40 production) (Homo sapiens)
Construct: made in house; host or cells: S-1 CHO cell line (Chinese hamster ovary)
assay.text: γ-Secretase assay, Aβ1-40 ELISA
Format: biochemical
test.context: 100 μM
Give bare numbers, in %.

Consider the reported inhibition at 100 µM for these compounds:
Cc1ccc(C(O)CCN(Cc2ccccc2)C(C)C)cc1C (stereo not shown) ... 0
OC(CCN1CCN(c2ccccc2)CC1)c1ccc2ccccc2c1 (stereo not shown) ... 0
CC(C)N(CCC(O)c1ccc2ccccc2c1)Cc1ccc(C#N)cc1 (stereo not shown) ... 19
COc1ccc(N2CCN(CCC(O)c3ccc4ccccc4c3)CC2)cc1 (stereo not shown) ... 0
COC(CCN(Cc1ccccc1)C(C)C)c1ccc2cc(C(O)CCN(Cc3ccccc3)C(C)C)ccc2c1 (stereo not shown) ... 12

Record inhibition at 100 µM per entry; entries follow.
1. OC(CCN1CCN(c2ccc(F)cc2)CC1)c1ccc(C(F)(F)F)cc1 (stereo not shown)
2. OC(CCNc1ccc(Oc2ccccc2)cc1)c1ccc2ccccc2c1 (stereo not shown)
3. OC(CCNc1ccc2c(c1)OCCO2)c1ccc2ccccc2c1 (stereo not shown)
4. COc1cc(CN(CCC(O)c2ccc3ccccc3c2)C(C)C)cc(OC)c1 (stereo not shown)
5. COc1ccc(NCCC(O)c2ccc3ccccc3c2)cc1 (stereo not shown)
6. CN(CCc1ccccc1)CCC(O)c1ccc2ccccc2c1 (stereo not shown)
7. CCN(CCC(O)c1ccc2ccccc2c1)Cc1ccccc1 (stereo not shown)

[out]
14
48
0
17
0
27
0

====

For each record, write down the corresponding inhibition at 100 µM.
target.or.test.system: γ-secretase (Aβ1-40 production) (Homo sapiens)
Construct: made in house; host or cells: S-1 CHO cell line (Chinese hamster ovary)
assay.text: γ-Secretase assay, Aβ1-40 ELISA
Assay type: biochemical
test.context: 100 μM
Numbers only, in %.

Record inhibition at 100 µM per entry; entries follow.
1. CC(C)N(CCC(O)c1cc(F)cc(Cl)c1)Cc1ccccc1 (stereo not shown)
2. CC(C)(C)c1ccc(C(O)CCN2CCN(c3ccc(F)cc3)CC2)cc1 (stereo not shown)
3. CC(C)N(CCC(O)c1ccc2ccccc2c1)Cc1ccc(F)c(Cl)c1 (stereo not shown)
4. COc1ccc(NCCC(O)c2ccc(Cl)cc2)cc1 (stereo not shown)

[out]
1. 30
2. 46
3. 0
4. 0
